Origin of measurements: ChEMBL document CHEMBL1201862

system: HOP-18; test: NCI tumour cell line growth inhibition, 48 h
The source made the active and inactive calls. No stated cut-off is given here; in the data, active = GI50 up to about 1.1 µM and inactive = higher.
property.name: GI50

INSERT INTO results (compound, result) VALUES
  ('COc1ccc(NC(=O)CC/C(CC(=O)C(C)(C)C)=N\NC(=O)C(=O)NN)cc1', '> 100 µM (inactive)'),
  ('N#CC(C(=O)/C(=N/NC(=O)c1ccccc1O)C(C#N)c1ccc(Br)cc1)c1ccc(Br)cc1 (stereo not drawn)', '8.41 µM (inactive)'),
  ('C=C1C2CC(OC(C)=O)C3(C)C(c4ccoc4)OC(=O)[C@@H](O)[C@]13OC1C[C@H](OC(C)=O)C(C)(C)[C@H](CC(=O)OC)[C@]12C (stereo partly drawn)', '> 100 µM (inactive)');

---

tested on: CCRF-CEM; test: NCI tumour cell line growth inhibition, 48 h
Active and inactive are the calls of the source. No stated cut-off is given here; in the data, active = GI50 up to about 1.1 µM and inactive = higher.
Possible outcomes: T for active, F for inactive

INSERT INTO assay_data (compound, target_system, qualitative_label) VALUES
  ('Cc1ccc(SCC(OCn2cnc3c(N)ncnc32)[C@H](C)F)cc1 (stereo partly specified)', 'CCRF-CEM', 'F'),
  ('O=c1c2ccccc2c(=O)c2c1c1[nH]c3ccccc3c1c1c(=O)c3ccccc3c(=O)c21', 'CCRF-CEM', 'F'),
  ('CC(=O)C1C(=O)C(=O)N(c2ccc([N+](=O)[O-])cc2[N+](=O)[O-])C1=O (stereo unspecified)', 'CCRF-CEM', 'F'),
  ('C1CCN2CC3CCCN4CCCC(C2C1)C34 (stereo unspecified)', 'CCRF-CEM', 'F'),
  ('CN(C)CCNC(=O)c1nc([N+](=O)[O-])cn1C', 'CCRF-CEM', 'F'),
  ('O=C(/C=C/c1ccc(Cl)cc1)c1ccc(Cl)c(Cl)c1', 'CCRF-CEM', 'F'),
  ('COc1cc2c(c(OC)c1OC)-c1ccc(SC)c(=O)cc1[C@@H](OC(C)=O)CC2', 'CCRF-CEM', 'T'),
  ('O=C1NC(=O)C2C1c1[nH]c3ccccc3c1C1CCCC12 (stereo unspecified)', 'CCRF-CEM', 'F'),
  ('COc1cc2c(cn1)[nH]c1ccccc12', 'CCRF-CEM', 'F'),
  ('COC(=O)C1(C(=O)OC)CC2=C(S(=O)(=O)c3ccccc3)C[C@H](C#N)[C@H]2C1', 'CCRF-CEM', 'F'),
  ('NC(CSC(=O)c1ccccc1)C(=O)O (stereo unspecified)', 'CCRF-CEM', 'F');

---

tested on: UO-31; experiment: NCI tumour cell line growth inhibition, 48 h
Active and inactive are the calls of the source. Cut-off read from the data, not from the text of the source: active = GI50 up to about 1.1 µM and inactive = higher.
Outcomes: 1.0 (active), 0.0 (inactive)

INSERT INTO results (molecule, target_system, qualitative_label) VALUES
  ('CC(=O)C1C(=O)C(=O)N(c2ccc([N+](=O)[O-])cc2[N+](=O)[O-])C1=O (configuration not stated)', 'UO-31', 0.0),
  ('COc1cc2c(cc1OCCCCN1CCN(CCCCOc3cc4c(cc3OC)C(=O)N3CCC[C@H]3C=N4)CC1)N=C[C@@H]1CCCN1C2=O', 'UO-31', 1.0),
  ('CC(=O)NC1CONC1=O (configuration not stated)', 'UO-31', 0.0),
  ('Cn1cnc([N+](=O)[O-])c1[Se]c1ncnc2nc[nH]c12', 'UO-31', 0.0),
  ('Cc1n[n+]([O-])c(C)cc1[N+](=O)[O-]', 'UO-31', 0.0),
  ('Cc1c(N)c(C#N)c2n(C)c3ncccc3n2c1=O', 'UO-31', 0.0),
  ('C/C(=N\N)C(CN1CCCCC1)C(c1ccccc1)c1c(O)c2ccccc2oc1=O (configuration not stated)', 'UO-31', 0.0);
